- system-under-test: TDO2 in A172 cancer cells (Homo sapiens)
- Construct: endogenous in cells
- assay-protocol: TDO2 Cellular Assay (kynurenine production in A172 cancer cells)
- condition-parameters: L-Trp 1 mM, 24 hours incubation, kynurenine at 490 nm
measured-property: IC50

Example cases with answers are listed next.
- compound: "CC(C)OC(=O)N1C[C@@H]2C[C@@](O)(c3cc(Cl)cc4[nH]ncc34)C[C@@H]2C1 [Example 61]"
  recorded-value: "≤ 500 nM"
- compound: "O=C(N[C@H]1[C@@H]2C[C@@](O)(c3cc(Cl)cc4[nH]ncc34)C[C@@H]21)c1cccc(Cl)c1 [Example 124]"
  recorded-value: "≤ 500 nM"
- compound: "CC(=O)N1C[C@@H]2CN(c3cc(Cl)cc4cncn34)C[C@@H]2C1(C)C (racemic) [Example 43]"
  recorded-value: "> 5000 nM"
- compound: "CC(=O)N1C[C@H]2CC(C(O)c3cc(Cl)cc4cn[nH]c34)C[C@H]2C1 (stereo partly shown) [Example 112]"
  recorded-value: "> 5000 nM"
- compound: "CNS(=O)(=O)N[C@H]1[C@@H]2C[C@@](O)(c3cc(C(F)(F)F)cc4[nH]ncc34)C[C@@H]21 [Example 162]"
  recorded-value: "≤ 500 nM"

--- query ---
INPUT: Recorded IC50 of O=C(N[C@H]1[C@@H]2C[C@@](O)(c3cc(Cl)cc4[nH]ncc34)C[C@@H]21)c1ccc(F)c(Cl)c1 [Example 150] , please.
OUTPUT: ≤ 500 nM

---

- system-under-test: TDO2 in A172 cancer cells (Homo sapiens)
- Construct: endogenous in cells
- assay-protocol: TDO2 Cellular Assay (kynurenine production in A172 cancer cells)
- condition-parameters: L-Trp 1 mM, 24 hours incubation, kynurenine at 490 nm
pIC50: −log10 of the molar value.
Recorded pIC50 by entry

Example cases with answers are listed next.
- compound: "CC(=O)N1C[C@@H]2CN(c3c(C(F)(F)F)ccc4cncn34)C[C@@H]2C1(C)C (racemic)"
  pIC50: "< 5.30"
- compound: "CC1(C)C2CN(c3cc(Cl)cc4[nH]ncc34)CC2CN1S(=O)(=O)c1ccc(C#N)cc1 (stereo not drawn)"
  pIC50: "5.30 to 6.00"
- compound: "O=S(=O)(NC1CCCCC1)N[C@H]1[C@@H]2C[C@@](O)(c3cc(Cl)cc4[nH]ncc34)C[C@@H]21"
  pIC50: "≥ 6.30"
- compound: "O=S(=O)(N[C@H]1[C@@H]2C[C@@](O)(c3cc(Cl)cc4[nH]ncc34)C[C@@H]21)C1CC1"
  pIC50: "≥ 6.30"
- compound: "O=S(=O)(NC1CC1)N[C@H]1[C@@H]2C[C@@](O)(c3cc(Cl)cc4[nH]ncc34)C[C@@H]21"
  pIC50: "≥ 6.30"

INPUT: Could you share what pIC50 was measured for CCNC(=O)N[C@H]1[C@@H]2C[C@@](O)(c3cc(Cl)cc4[nH]ncc34)C[C@@H]21 , tested on TDO2 in A172 cancer cells (Homo sapiens)?
OUTPUT: ≥ 6.30

INPUT: Could you share what pIC50 was measured for CNS(=O)(=O)N[C@H]1[C@@H]2C[C@@](O)(c3cc(Cl)cc4[nH]ncc34)C[C@@H]21 , tested on TDO2 in A172 cancer cells (Homo sapiens)?
OUTPUT: ≥ 6.30

INPUT: Could you share what pIC50 was measured for N#CCC(=O)N[C@H]1[C@@H]2C[C@@](O)(c3cc(Cl)cc4[nH]ncc34)C[C@@H]21 , tested on TDO2 in A172 cancer cells (Homo sapiens)?
OUTPUT: ≥ 6.30

INPUT: Could you share what pIC50 was measured for O=C(NC1CC1)N[C@H]1[C@@H]2C[C@@](O)(c3cc(Cl)cc4[nH]ncc34)C[C@@H]21 , tested on TDO2 in A172 cancer cells (Homo sapiens)?
OUTPUT: ≥ 6.30

INPUT: Could you share what pIC50 was measured for O=C(N[C@H]1[C@@H]2C[C@@](O)(c3cc(Cl)cc4[nH]ncc34)C[C@@H]21)c1ccnc(C(F)(F)F)c1 , tested on TDO2 in A172 cancer cells (Homo sapiens)?
OUTPUT: ≥ 6.30

INPUT: Could you share what pIC50 was measured for O=C(N[C@H]1[C@@H]2C[C@@](O)(c3cc(Cl)cc4[nH]ncc34)C[C@@H]21)C1CCOCC1 , tested on TDO2 in A172 cancer cells (Homo sapiens)?
OUTPUT: ≥ 6.30

INPUT: Could you share what pIC50 was measured for CS(=O)(=O)N1CCC2CN(c3cc(Cl)cc4[nH]ncc34)CC21 (stereo not drawn) , tested on TDO2 in A172 cancer cells (Homo sapiens)?
OUTPUT: 6.00 to 6.30

---

- system-under-test: TDO2 in A172 cancer cells (Homo sapiens)
- Construct: endogenous in cells
- assay-protocol: TDO2 Cellular Assay (kynurenine production in A172 cancer cells)
- condition-parameters: L-Trp 1 mM, 24 hours incubation, kynurenine at 490 nm
measured-property: IC50

- compound: "O=C(N[C@H]1[C@@H]2C[C@@](O)(c3cc(Cl)cc4[nH]ncc34)C[C@@H]21)c1ccnc2ccccc12 [Example 169]"
  measured-property: "IC50"
  recorded-value: "≤ 0.5 µM"
- compound: "CS(=O)(=O)Nc1cccc(C(=O)N[C@H]2[C@@H]3C[C@@](O)(c4cc(Cl)cc5[nH]ncc45)C[C@@H]32)c1 [Example 141]"
  measured-property: "IC50"
  recorded-value: "0.5 to 1 µM"

INPUT: Could you share what IC50 was measured for CC1(C)[C@H]2CN(c3cc(C(F)(F)F)cn4cncc34)C[C@H]2CN1S(C)(=O)=O (racemic) [Example 46] , tested on TDO2 in A172 cancer cells (Homo sapiens)?
OUTPUT: 1 to 5 µM

INPUT: Could you share what IC50 was measured for CS(=O)(=O)N1C[C@@H]2C[C@@](O)(c3cc(Cl)cc4cn[nH]c34)C[C@@H]2C1 [Example 96] , tested on TDO2 in A172 cancer cells (Homo sapiens)?
OUTPUT: 1 to 5 µM

INPUT: Could you share what IC50 was measured for CC(=O)NC1[C@H]2CN(c3cc(Cl)cc4[nH]ncc34)C[C@@H]12 (stereo partly shown) [Example 17] , tested on TDO2 in A172 cancer cells (Homo sapiens)?
OUTPUT: 1 to 5 µM

INPUT: Could you share what IC50 was measured for O=C(N[C@H]1[C@@H]2C[C@@](O)(c3cc(Cl)cc4[nH]ncc34)C[C@@H]21)c1ccccc1 [Example 93] , tested on TDO2 in A172 cancer cells (Homo sapiens)?
OUTPUT: ≤ 0.5 µM

INPUT: Could you share what IC50 was measured for CCOC(=O)N[C@H]1[C@@H]2C[C@@](O)(c3cc(Cl)cc4[nH]ncc34)C[C@@H]21 [Example 81] , tested on TDO2 in A172 cancer cells (Homo sapiens)?
OUTPUT: ≤ 0.5 µM

---

- system-under-test: TDO2 in A172 cancer cells (Homo sapiens, UniProt P48775)
- Construct: endogenous in cells
- Sequence (P48775 whole entry): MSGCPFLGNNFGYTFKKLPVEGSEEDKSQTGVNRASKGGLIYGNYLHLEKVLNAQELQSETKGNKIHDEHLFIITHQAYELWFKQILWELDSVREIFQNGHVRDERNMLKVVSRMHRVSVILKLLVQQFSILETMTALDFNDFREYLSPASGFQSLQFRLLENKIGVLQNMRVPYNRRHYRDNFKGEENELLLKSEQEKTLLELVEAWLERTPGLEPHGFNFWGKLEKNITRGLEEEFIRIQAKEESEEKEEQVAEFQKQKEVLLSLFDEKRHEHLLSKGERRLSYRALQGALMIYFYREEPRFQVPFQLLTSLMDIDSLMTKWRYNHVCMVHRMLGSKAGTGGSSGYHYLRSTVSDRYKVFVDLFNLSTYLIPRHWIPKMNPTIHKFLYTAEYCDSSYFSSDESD
- assay-protocol: TDO2 Cellular Assay (kynurenine production in A172 cancer cells)
- condition-parameters: L-Trp 1 mM, 24 hours incubation, kynurenine at 490 nm
pIC50: −log10 of the molar value.
measured-property: pIC50

Example cases with answers are listed next.
- compound: "CNS(=O)(=O)N1C[C@@H]2C[C@@](O)(c3cc(Cl)cc4[nH]ncc34)C[C@@H]2C1"
  recorded-value: "≥ 6.30"
- compound: "O=C(N[C@H]1[C@@H]2C[C@@](O)(c3cc(Cl)cc4[nH]ncc34)C[C@@H]21)c1cncc(Cl)c1"
  recorded-value: "≥ 6.30"
- compound: "CC1(C)C2CN(c3cc(Cl)cc4[nH]ncc34)CC2CN1S(=O)(=O)C1CC1 (stereo not drawn)"
  recorded-value: "≥ 6.30"
- compound: "OC1(c2cc(Cl)cc3[nH]ncc23)CC1"
  recorded-value: "≥ 6.30"
- compound: "CS(=O)(=O)N1C[C@H]2CC(C(O)c3cc(Cl)cc4[nH]ncc34)C[C@H]2C1 (stereo partly drawn)"
  recorded-value: "≥ 6.30"

INPUT: Recorded pIC50 of O=C(N[C@H]1[C@@H]2C[C@@](O)(c3cc(Cl)cc4[nH]ncc34)C[C@@H]21)c1ccc(F)c(OC(F)(F)F)c1 , please.
OUTPUT: ≥ 6.30

INPUT: Recorded pIC50 of CC(=O)N1C[C@@H]2C[C@@](O)(c3c(Cl)ccc4cncn34)C[C@@H]2C1 , please.
OUTPUT: < 5.30

INPUT: Recorded pIC50 of CC(C)OC(=O)N[C@H]1[C@@H]2C[C@@](O)(c3cc(Cl)cc4[nH]ncc34)C[C@@H]21 , please.
OUTPUT: ≥ 6.30

INPUT: Recorded pIC50 of CC(C)(C)C(=O)N[C@H]1[C@@H]2C[C@@](O)(c3cc(Cl)cc4[nH]ncc34)C[C@@H]21 , please.
OUTPUT: ≥ 6.30

INPUT: Recorded pIC50 of O=C(NC1CCCCC1)N[C@H]1[C@@H]2C[C@@](O)(c3cc(Cl)cc4[nH]ncc34)C[C@@H]21 , please.
OUTPUT: ≥ 6.30

INPUT: Recorded pIC50 of O=C(C1CC1)N1C[C@@H]2C[C@@](O)(c3cc(Cl)cc4cn[nH]c34)C[C@@H]2C1 , please.
OUTPUT: 5.30 to 6.00

INPUT: Recorded pIC50 of CC(=O)N1CCC2CN(c3cc(Cl)cc4[nH]ncc34)CC21 (stereo not drawn) , please.
OUTPUT: 6.00 to 6.30
